# Test system: MRSA KS1
# ASSAY: MIC, broth microdilution, MRSA KS1
# Type: cell-based, Staphylococcus aureus
# MEASUREMENT PARAMETERS: MRSA KS1; ratio of MIC of vancomycin and MIC of analogue
MEASUREMENT NAME: MIC-fold improvement vs. vancomycin
// no unit, no text: just the number

CN[C@H](CC(C)C)C(=O)N[C@H]1C(=O)N[C@@H](CC(N)=O)C(=O)N[C@H]2C(=O)N[C@H]3C(=O)N[C@H](C(=O)N[C@H](C(=O)NCCNC(=O)/C=C/c4ccc(F)cc4)c4cc(O)cc(O)c4-c4cc3ccc4O)[C@H](O)c3ccc(c(Cl)c3)Oc3cc2cc(c3O[C@@H]2O[C@H](CO)[C@@H](O)[C@H](O)[C@H]2O[C@H]2C[C@](C)(N)[C@H](O)[C@H](C)O2)Oc2ccc(cc2Cl)[C@H]1O [Vanc-22]; 2
CN[C@H](CC(C)C)C(=O)N[C@H]1C(=O)N[C@@H](CC(N)=O)C(=O)N[C@H]2C(=O)N[C@H]3C(=O)N[C@H](C(=O)N[C@H](C(=O)NCCNC(=O)/C=C/c4ccc(NS(=O)(=O)c5ccc(C(C)C)cc5)cc4)c4cc(O)cc(O)c4-c4cc3ccc4O)[C@H](O)c3ccc(c(Cl)c3)Oc3cc2cc(c3O[C@@H]2O[C@H](CO)[C@@H](O)[C@H](O)[C@H]2O[C@H]2C[C@](C)(N)[C@H](O)[C@H](C)O2)Oc2ccc(cc2Cl)[C@H]1O [Vanc-56]; 1

Query: Hi! What's the reported MIC-fold improvement vs. vancomycin for CNC(CC(C)C)C(=O)NC1C(=O)NC(CC(N)=O)C(=O)NC2C(=O)NC3C(=O)NC(C(=O)NC(C(=O)NCC(=O)Nc4ccc(O)cc4)c4cc(O)cc(O)c4-c4cc3ccc4O)C(O)c3ccc(c(Cl)c3)Oc3cc2cc(c3OC2OC(CO)C(O)C(O)C2OC2CC(C)(N)C(O)C(C)O2)Oc2ccc(cc2Cl)C1O (stereo not drawn) [Vanc-1] on MRSA KS1?
Response: 1
